Study system: U1A M51N (UniProt P09012 10-89, M51N)
Sequence (P09012 10-89 M51N): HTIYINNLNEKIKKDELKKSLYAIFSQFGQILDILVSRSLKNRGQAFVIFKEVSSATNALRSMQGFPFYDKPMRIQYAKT
Test: fluorescence polarization
Metric: pKd
The scale used: pKd is minus the common logarithm of the concentration in molar units.

Can you look up the measured pKd of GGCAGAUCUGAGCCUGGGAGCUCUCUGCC (structured_RNA) [TAR RNA] for me?
4.86
